Overview of reported melting point across a group of molecules:

Solved cases below.
O=[N+]([O-])c1ccc(O)c(-c2cccs2)c1 | 130 °C
CN(C)c1ccc2c(c1)C(=O)CC(c1ccccc1O)=N2 | 296 to 298 °C
COc1cc2c(OC)nc3c4ccccc4nc(OC)c3c2cc1OC | 173 to 175 °C

Challenge: Dear colleague, I am looking for the recorded melting point of the following molecule: `CC(C)c1cccc(C(C)C)c1NC(=O)Cc1c(-c2ccccc2)c2cc(Cl)ccc2n(C)c1=O`
Response given: 237 to 238 °C

Challenge: Dear colleague, I am looking for the recorded melting point of the following molecule: `CCn1c(N)c(C(=O)NC)c(=O)c2cnc(-c3ccc(NC(=O)NCc4cccnc4)cc3)nc21`
Response given: 250 °C

Challenge: Dear colleague, I am looking for the recorded melting point of the following molecule: OC(COc1ccccc1-c1cc[nH]n1)CN1CCN(c2ccc(Cl)cc2)CC1 (stereo not drawn)
Response given: 120 to 121 °C

Challenge: Dear colleague, I am looking for the recorded melting point of the following molecule: Cc1cccc(NC(=O)NC(Cc2ccccc2)C(=O)O)c1 (racemic)
Response given: 182 °C

Challenge: Dear colleague, I am looking for the recorded melting point of the following molecule: CC(=O)NC(CCc1ccc(C(O)CCCCCCc2ccccc2)cc1)(CO[Si](C)(C)C(C)(C)C)CO[Si](C)(C)C(C)(C)C (stereo not drawn)
Response given: 121 to 122 °C
